System: Salmonella typhi
Assay: Expected efficacy of anti-bacterial agents against various bacteria (Tables 5 and 6)
Details: Gram: neg
Assay readout: Efficacy of various antibiotic agents

CN[C@H](CC(C)C)C(=O)N[C@H]1C(=O)N[C@@H](CC(N)=O)C(=O)N[C@H]2C(=O)N[C@H]3C(=O)N[C@H](C(=O)N[C@H](C(=O)O)c4cc(O)cc(O)c4-c4cc3ccc4O)[C@H](O)c3ccc(c(Cl)c3)Oc3cc2cc(c3O[C@@H]2O[C@H](CO)[C@@H](O)[C@H](O)[C@H]2O[C@H]2C[C@](C)(N)[C@H](O)[C@H](C)O2)Oc2ccc(cc2Cl)[C@H]1O [Vancomycin]    no
CO/N=C(\C(=O)N[C@@H]1C(=O)N2C(C(=O)O)=C(CSc3nc(=O)c(=O)[nH]n3C)CS[C@H]12)c1csc(N)n1 [Ceftriaxone]    yes
O=C(O)c1cn(C2CC2)c2cc(N3CCNCC3)c(F)cc2c1=O [Ciprofloxacin]    yes
C/C(=C\C(=O)OCCCCCCCCC(=O)O)C[C@@H]1OC[C@H](C[C@@H]2O[C@H]2[C@@H](C)[C@H](C)O)[C@@H](O)[C@H]1O [Bactroban, Mupirocin]    no

* * *

Test system: Bartonella bacilliformis
Experiment: Expected efficacy of anti-bacterial agents against various bacteria (Tables 5 and 6)
Settings: Gram: neg
Assay readout: Efficacy of various antibiotic agents

C/C(=C\C(=O)OCCCCCCCCC(=O)O)C[C@@H]1OC[C@H](C[C@@H]2O[C@H]2[C@@H](C)[C@H](C)O)[C@@H](O)[C@H]1O    no
CC[C@H]1OC(=O)[C@H](C)[C@@H](O[C@H]2C[C@@](C)(OC)[C@@H](O)[C@H](C)O2)[C@H](C)[C@@H](O[C@@H]2O[C@H](C)C[C@H](N(C)C)[C@H]2O)[C@](C)(O)C[C@@H](C)CN(C)[C@H](C)[C@@H](O)[C@]1(C)O    yes
O=C(O)c1cn(C2CC2)c2cc(N3CCNCC3)c(F)cc2c1=O    yes
CN[C@H](CC(C)C)C(=O)N[C@H]1C(=O)N[C@@H](CC(N)=O)C(=O)N[C@H]2C(=O)N[C@H]3C(=O)N[C@H](C(=O)N[C@H](C(=O)O)c4cc(O)cc(O)c4-c4cc3ccc4O)[C@H](O)c3ccc(c(Cl)c3)Oc3cc2cc(c3O[C@@H]2O[C@H](CO)[C@@H](O)[C@H](O)[C@H]2O[C@H]2C[C@](C)(N)[C@H](O)[C@H](C)O2)Oc2ccc(cc2Cl)[C@H]1O    no

* * *

Tested on: Clostridium difficile
Test: Expected efficacy of anti-bacterial agents against various bacteria (Tables 5 and 6)
Conditions: Gram: anaer
Assay readout: Efficacy of various antibiotic agents

CO/N=C(\C(=O)N[C@@H]1C(=O)N2C(C(=O)O)=C(CSc3nc(=O)c(=O)[nH]n3C)CS[C@H]12)c1csc(N)n1 [Ceftriaxone]    no
CC[C@H]1OC(=O)[C@H](C)[C@@H](O[C@H]2C[C@@](C)(OC)[C@@H](O)[C@H](C)O2)[C@H](C)[C@@H](O[C@@H]2O[C@H](C)C[C@H](N(C)C)[C@H]2O)[C@](C)(O)C[C@@H](C)CN(C)[C@H](C)[C@@H](O)[C@]1(C)O [Azithromycin]    no
NC[C@H]1O[C@H](O[C@H]2[C@H](O)[C@@H](O[C@H]3O[C@H](CO)[C@@H](O)[C@H](N)[C@H]3O)[C@H](N)C[C@@H]2N)[C@H](N)C[C@@H]1O [Tobramycin]    no
CN[C@H](CC(C)C)C(=O)N[C@H]1C(=O)N[C@@H](CC(N)=O)C(=O)N[C@H]2C(=O)N[C@H]3C(=O)N[C@H](C(=O)N[C@H](C(=O)O)c4cc(O)cc(O)c4-c4cc3ccc4O)[C@H](O)c3ccc(c(Cl)c3)Oc3cc2cc(c3O[C@@H]2O[C@H](CO)[C@@H](O)[C@H](O)[C@H]2O[C@H]2C[C@](C)(N)[C@H](O)[C@H](C)O2)Oc2ccc(cc2Cl)[C@H]1O [Vancomycin]    yes

* * *

Tested on: Enterobacter sakazakii
Test: Expected efficacy of anti-bacterial agents against various bacteria (Tables 5 and 6)
Conditions: Gram: neg
Assay readout: Efficacy of various antibiotic agents

C/C(=C\C(=O)OCCCCCCCCC(=O)O)C[C@@H]1OC[C@H](C[C@@H]2O[C@H]2[C@@H](C)[C@H](C)O)[C@@H](O)[C@H]1O [Bactroban, Mupirocin]    no
CO/N=C(\C(=O)N[C@@H]1C(=O)N2C(C(=O)O)=C(CSc3nc(=O)c(=O)[nH]n3C)CS[C@H]12)c1csc(N)n1 [Ceftriaxone]    yes
CC[C@H]1OC(=O)[C@H](C)[C@@H](O[C@H]2C[C@@](C)(OC)[C@@H](O)[C@H](C)O2)[C@H](C)[C@@H](O[C@@H]2O[C@H](C)C[C@H](N(C)C)[C@H]2O)[C@](C)(O)C[C@@H](C)CN(C)[C@H](C)[C@@H](O)[C@]1(C)O [Azithromycin]    no

* * *

Test system: Streptococcus pyogenes
Assay: Expected efficacy of anti-bacterial agents against various bacteria (Tables 5 and 6)
Conditions: Gram: pos
Assay readout: Efficacy of various antibiotic agents

Worked examples, 4 compounds total:
CO/N=C(\C(=O)N[C@@H]1C(=O)N2C(C(=O)O)=C(CSc3nc(=O)c(=O)[nH]n3C)CS[C@H]12)c1csc(N)n1    yes
CN[C@H](CC(C)C)C(=O)N[C@H]1C(=O)N[C@@H](CC(N)=O)C(=O)N[C@H]2C(=O)N[C@H]3C(=O)N[C@H](C(=O)N[C@H](C(=O)O)c4cc(O)cc(O)c4-c4cc3ccc4O)[C@H](O)c3ccc(c(Cl)c3)Oc3cc2cc(c3O[C@@H]2O[C@H](CO)[C@@H](O)[C@H](O)[C@H]2O[C@H]2C[C@](C)(N)[C@H](O)[C@H](C)O2)Oc2ccc(cc2Cl)[C@H]1O    yes
C/C(=C\C(=O)OCCCCCCCCC(=O)O)C[C@@H]1OC[C@H](C[C@@H]2O[C@H]2[C@@H](C)[C@H](C)O)[C@@H](O)[C@H]1O    yes
CC[C@H]1OC(=O)[C@H](C)[C@@H](O[C@H]2C[C@@](C)(OC)[C@@H](O)[C@H](C)O2)[C@H](C)[C@@H](O[C@@H]2O[C@H](C)C[C@H](N(C)C)[C@H]2O)[C@](C)(O)C[C@@H](C)CN(C)[C@H](C)[C@@H](O)[C@]1(C)O    yes

Please turn your attention to the following entry.
Documented Efficacy of various antibiotic agents of NC[C@H]1O[C@H](O[C@H]2[C@H](O)[C@@H](O[C@H]3O[C@H](CO)[C@@H](O)[C@H](N)[C@H]3O)[C@H](N)C[C@@H]2N)[C@H](N)C[C@@H]1O : no

* * *

System: Bacteroides fragilis
Experiment: Expected efficacy of anti-bacterial agents against various bacteria (Tables 5 and 6)
Conditions: Gram: anaer
Assay readout: Efficacy of various antibiotic agents

Solved cases (4 shown):
CO/N=C(\C(=O)N[C@@H]1C(=O)N2C(C(=O)O)=C(CSc3nc(=O)c(=O)[nH]n3C)CS[C@H]12)c1csc(N)n1    yes
CC[C@H]1OC(=O)[C@H](C)[C@@H](O[C@H]2C[C@@](C)(OC)[C@@H](O)[C@H](C)O2)[C@H](C)[C@@H](O[C@@H]2O[C@H](C)C[C@H](N(C)C)[C@H]2O)[C@](C)(O)C[C@@H](C)CN(C)[C@H](C)[C@@H](O)[C@]1(C)O    no
O=C(O)c1cn(C2CC2)c2cc(N3CCNCC3)c(F)cc2c1=O    no
NC[C@H]1O[C@H](O[C@H]2[C@H](O)[C@@H](O[C@H]3O[C@H](CO)[C@@H](O)[C@H](N)[C@H]3O)[C@H](N)C[C@@H]2N)[C@H](N)C[C@@H]1O    no

# CN[C@H](CC(C)C)C(=O)N[C@H]1C(=O)N[C@@H](CC(N)=O)C(=O)N[C@H]2C(=O)N[C@H]3C(=O)N[C@H](C(=O)N[C@H](C(=O)O)c4cc(O)cc(O)c4-c4cc3ccc4O)[C@H](O)c3ccc(c(Cl)c3)Oc3cc2cc(c3O[C@@H]2O[C@H](CO)[C@@H](O)[C@H](O)[C@H]2O[C@H]2C[C@](C)(N)[C@H](O)[C@H](C)O2)Oc2ccc(cc2Cl)[C@H]1O with Bacteroides fragilis: Efficacy of various antibiotic agents is no

* * *

Test system: Citrobacter freundii
Experiment: Expected efficacy of anti-bacterial agents against various bacteria (Tables 5 and 6)
Conditions: Gram: neg
Assay readout: Efficacy of various antibiotic agents

CC[C@H]1OC(=O)[C@H](C)[C@@H](O[C@H]2C[C@@](C)(OC)[C@@H](O)[C@H](C)O2)[C@H](C)[C@@H](O[C@@H]2O[C@H](C)C[C@H](N(C)C)[C@H]2O)[C@](C)(O)C[C@@H](C)CN(C)[C@H](C)[C@@H](O)[C@]1(C)O [Azithromycin]    no
C/C(=C\C(=O)OCCCCCCCCC(=O)O)C[C@@H]1OC[C@H](C[C@@H]2O[C@H]2[C@@H](C)[C@H](C)O)[C@@H](O)[C@H]1O [Bactroban, Mupirocin]    no
NC[C@H]1O[C@H](O[C@H]2[C@H](O)[C@@H](O[C@H]3O[C@H](CO)[C@@H](O)[C@H](N)[C@H]3O)[C@H](N)C[C@@H]2N)[C@H](N)C[C@@H]1O [Tobramycin]    yes
CN[C@H](CC(C)C)C(=O)N[C@H]1C(=O)N[C@@H](CC(N)=O)C(=O)N[C@H]2C(=O)N[C@H]3C(=O)N[C@H](C(=O)N[C@H](C(=O)O)c4cc(O)cc(O)c4-c4cc3ccc4O)[C@H](O)c3ccc(c(Cl)c3)Oc3cc2cc(c3O[C@@H]2O[C@H](CO)[C@@H](O)[C@H](O)[C@H]2O[C@H]2C[C@](C)(N)[C@H](O)[C@H](C)O2)Oc2ccc(cc2Cl)[C@H]1O [Vancomycin]    no
CO/N=C(\C(=O)N[C@@H]1C(=O)N2C(C(=O)O)=C(CSc3nc(=O)c(=O)[nH]n3C)CS[C@H]12)c1csc(N)n1 [Ceftriaxone]    yes

Would you kindly look at the next entry?
Looking up O=C(O)c1cn(C2CC2)c2cc(N3CCNCC3)c(F)cc2c1=O [Ciprofloxacin] , I see its Efficacy of various antibiotic agents listed as yes
